Data origin, for the record: paper PMC11062899

assay: Metabolic stability in rat liver microsomes (RLMs); details: rat, microsomes, RLM CL, rat liver microsomes, individual replicates R1-R3, incubation volume 400 ul, protein 0.5 mg/ml
Overview of recorded microsomal CLint for various compounds
endpoint label: microsomal CLint (µL/min/mg)

[[record]]
compound = "COc1ccc(CC(=O)N[C@H]2Cc3ccc(cc3)CNC(=O)c3cccc(c3)CNC(=O)CCSCc3ccc(cc3)CSCCNC2=O)cc1OC [peptide 3]"
endpoint_label = "microsomal CLint"
experimental_result = 92.5

[[record]]
compound = "O=C(N[C@H]1CSC/C=C\\CSCCNC(=O)C2(CC2)CNC(=O)[C@H](CO)NC1=O)c1cccnc1 [peptide 2]"
endpoint_label = "microsomal CLint"
experimental_result = 9.21

[[record]]
compound = "CN1CCC(=O)NCCSCC(=O)CSC[C@H](NC(=O)c2cccc(C(F)(F)F)c2)C(=O)N2CCC[C@@H](C2)C1=O"
endpoint_label = "microsomal CLint"
experimental_result = 49.2

[[record]]
compound = "O=C1CC2CCN(CC2)C(=O)[C@@H](NC(=O)c2cc(F)cc(F)c2)CSCc2ccc(cc2)CSCCNC(=O)[C@H](Cc2ccccc2)N1 [peptide 1]"
endpoint_label = "microsomal CLint"
experimental_result = 119


----------
Overview of recorded Residual thrombin activity: Equilibrated sample for various molecules
molecular target: human α-thrombin (Homo sapiens); test: Sub-library screen for active and permeable cyclic peptides (PAMPA plus thrombin inhibition); format: biochemical; settings: donor sample diluted to theoretical equilibrium (1 μM in assay); crude; slopes normalized to DMSO
endpoint label: Residual thrombin activity: Equilibrated sample

[[record]]
molecule = "O=C1C[C@H]2CCCN2C(=O)[C@H](Cc2ccc(C(F)(F)F)cc2)NC(=O)[C@@H](NC(=O)c2ccc(Cl)s2)CCSCc2ccc(cc2)CSCCN1 [C2-X36-L3]"
experimental_result = 101.3

[[record]]
molecule = "Cc1cccc(C[C@@H]2NC(=O)[C@@H](NC(=O)c3ccc(Cl)s3)CSCC(=O)CSCCNC(=O)C[C@H]3CCCN3C2=O)c1 [C1-X37-L7]"
experimental_result = 97.7

[[record]]
molecule = "O=C1CSCCNC(=O)C[C@H]2CCCN2C(=O)[C@H](Cc2ccccc2)NC(=O)[C@@H](NC(=O)c2ccc(Cl)s2)CSC1 [C1-X5-L7]"
experimental_result = 82.8

[[record]]
molecule = "O=C1C[C@H]2CCCN2C(=O)[C@@H](Cc2ccccc2)NC(=O)[C@@H](NC(=O)c2ccc(Cl)s2)CSCCS(=O)(=O)CCSCCN1 [C1-X31-L2]"
experimental_result = 90.9

[[record]]
molecule = "O=C1C[C@H]2CCCN2C(=O)[C@H](Cc2ccc(Cl)cc2)NC(=O)[C@@H](NC(=O)c2ccc(Cl)s2)CSCc2ccc(cc2)CSCCN1 [C1-X34-L3]"
experimental_result = 94.6

[[record]]
molecule = "O=C1C[C@H]2CCCN2C(=O)[C@H](Cc2ccccc2)NC(=O)[C@@H](NC(=O)c2ccc(Cl)s2)CCSCc2cccc(c2)CSCCN1 [C2-X5-L5]"
experimental_result = 54.8


----------
assay: Peptide stability in simulated intestinal fluid (SIF); format: in vitro ADME, porcine; conditions: simulated gi fluid; 8 h, 37 °C, pH 6.8; read-out: Proteolytic stability: SIF (8 h) % remaining
Overview of recorded remaining at 8 h for various molecules
endpoint label: remaining at 8 h (%)

[[record]]
smiles_string = "O=C1NCCSCc2cccc(n2)CSC[C@H](NC(=O)c2ccc(Cl)s2)C(=O)N[C@@H](CO)C(=O)NCc2ccc1cc2"
experimental_result = 93

[[record]]
smiles_string = "O=C1CC2CCN(CC2)C(=O)[C@H](Cc2ccccc2)NC(=O)[C@@H](NC(=O)c2ccc(Cl)s2)CSCc2cccc(n2)CSCCN1"
experimental_result = 88

[[record]]
smiles_string = "O=C1CCSC/C=C/CSCCNC(=O)[C@H](CNC(=O)c2ccc(Cl)s2)NC(=O)[C@H](Cc2ccccn2)N1"
experimental_result = 96


----------
Overview of recorded SIF stability, Residual peptide Average for various molecules
tested on: porcine pancreatin; assay: Peptide stability in simulated intestinal fluid (SIF); format: in vitro ADME; settings: after 8 h vs 0 h (TIC); average of R1-R3
endpoint label: SIF stability, Residual peptide Average

[[record]]
molecule = "O=C1C[C@H]2CCCN2C(=O)[C@H](Cc2ccccc2)NC(=O)[C@@H](NC(=O)c2ccc(Cl)s2)CCSC/C=C/CSCCN1 [compound 34]"
experimental_result = 62.79

[[record]]
molecule = "NC(=O)NCCC[C@@H]1NC(=O)[C@@H](NC(=O)c2ccc(Cl)s2)CNC(=O)CCSCc2cccc(n2)CSCCNC1=O [compound 20]"
experimental_result = 92.33

[[record]]
molecule = "O=C1C[C@H]2CCCN2C(=O)[C@H](Cc2ccccn2)NC(=O)[C@@H](NC(=O)c2ccc(Cl)s2)CSCCS(=O)(=O)CCSCCN1 [compound 12]"
experimental_result = 95.62


----------
assay: Metabolic stability in rat liver microsomes (RLMs); details: rat, Half Life (min), R1, RLM metabolic stability, replicate R1
Overview of recorded half-life for various compounds
endpoint label: half-life

[[record]]
compound = "O=C1C[C@H]2CCCN2C(=O)[C@H](Cc2ccccc2)NC(=O)[C@@H](NC(=O)c2ccc(Cl)s2)CCSC/C=C/CSCCN1"
endpoint_label = "half-life"
experimental_result = "19.9 min"

[[record]]
compound = "O=C1C[C@H]2CCCN2C(=O)[C@H](Cc2ccccc2)NC(=O)[C@@H](NC(=O)c2ccc(Cl)s2)CSCc2cccc(n2)CSCCN1"
endpoint_label = "half-life"
experimental_result = "25.9 min"

[[record]]
compound = "O=C1C[C@H]2CCCN2C(=O)[C@H](Cc2ccccc2)NC(=O)[C@@H](NC(=O)c2ccc(Cl)s2)CSC/C=C/CSCCN1 [peptide 32]"
endpoint_label = "half-life"
experimental_result = "4.98 min"

[[record]]
compound = "O=C1C[C@H]2CCCN2C(=O)[C@H](Cc2ccccc2)NC(=O)[C@@H](NC(=O)c2ccc(Cl)s2)CCCSCc2cccc(n2)CSCCN1"
endpoint_label = "half-life"
experimental_result = "17.6 min"

[[record]]
compound = "O=C1C[C@H]2CCCN2C(=O)[C@H](Cc2ccccc2)NC(=O)[C@@H](NC(=O)c2ccc(Cl)s2)CCSCc2cccc(n2)CSCCN1"
endpoint_label = "half-life"
experimental_result = "26.6 min"


----------
assay: Metabolic stability in rat liver microsomes (RLMs); settings: rat liver microsomes, 5 min, replicate R1
endpoint label: TIC value of compound, 5 min, R1

[[record]]
compound = "O=C1C[C@H]2CCCN2C(=O)[C@H](Cc2ccccc2)NC(=O)[C@@H](NC(=O)c2ccc(Cl)s2)CSCc2cccc(n2)CSCCN1 [compound 31]"
experimental_result = 16129690

[[record]]
compound = "O=C1C[C@H]2CCCN2C(=O)[C@H](Cc2ccccc2)NC(=O)[C@@H](NC(=O)c2ccc(Cl)s2)CCSCc2cccc(n2)CSCCN1 [compound 33]"
experimental_result = 18437497

[[record]]
compound = "O=C1C[C@H]2CCCN2C(=O)[C@H](Cc2ccccc2)NC(=O)[C@@H](NC(=O)c2ccc(Cl)s2)CCCSCc2cccc(n2)CSCCN1 [compound 35]"
experimental_result = 20860918

[[record]]
compound = "O=C1C[C@H]2CCCN2C(=O)[C@H](Cc2ccccc2)NC(=O)[C@@H](NC(=O)c2ccc(Cl)s2)CCCSC/C=C/CSCCN1 [compound 36]"
experimental_result = 8960155

[[record]]
compound = "O=C1C[C@H]2CCCN2C(=O)[C@H](Cc2ccccc2)NC(=O)[C@@H](NC(=O)c2ccc(Cl)s2)CCSC/C=C/CSCCN1 [compound 34]"
experimental_result = 11351623

[[record]]
compound = "O=C1CSCCC[C@H](NC(=O)c2ccc(Cl)s2)C(=O)N[C@@H](Cc2ccccc2)C(=O)N2CCC[C@@H]2CC(=O)NCCSC1 [compound 37]"
experimental_result = 8851267

[[record]]
compound = "O=C1C[C@H]2CCCN2C(=O)[C@H](Cc2ccccc2)NC(=O)[C@@H](NC(=O)c2ccc(Cl)s2)CSC/C=C/CSCCN1 [peptide 32]"
experimental_result = 2223511


----------
test: Metabolic stability in rat liver microsomes (RLMs); conditions: rat, Half Life (min), R3, RLM metabolic stability, replicate R3
half-life under 20 min gets t, anything at or over 20 min gets f.

[[record]]
compound = "O=C1C[C@H]2CCCN2C(=O)[C@H](Cc2ccccc2)NC(=O)[C@@H](NC(=O)c2ccc(Cl)s2)CSC/C=C/CSCCN1 [peptide 32]"
label_value = "t"

[[record]]
compound = "O=C1C[C@H]2CCCN2C(=O)[C@H](Cc2ccccc2)NC(=O)[C@@H](NC(=O)c2ccc(Cl)s2)CCSCc2cccc(n2)CSCCN1"
label_value = "f"

[[record]]
compound = "O=C1C[C@H]2CCCN2C(=O)[C@H](Cc2ccccc2)NC(=O)[C@@H](NC(=O)c2ccc(Cl)s2)CSCc2cccc(n2)CSCCN1"
label_value = "f"

[[record]]
compound = "O=C1C[C@H]2CCCN2C(=O)[C@H](Cc2ccccc2)NC(=O)[C@@H](NC(=O)c2ccc(Cl)s2)CCCSCc2cccc(n2)CSCCN1"
label_value = "t"

[[record]]
compound = "O=C1C[C@H]2CCCN2C(=O)[C@H](Cc2ccccc2)NC(=O)[C@@H](NC(=O)c2ccc(Cl)s2)CCSC/C=C/CSCCN1"
label_value = "f"

